target: HuTCR Vb17 × Va12 (SKW3-2) (human); assay: flow cytometry on SKW3-2 cells
Sequence (A0A075B6N1 22-114): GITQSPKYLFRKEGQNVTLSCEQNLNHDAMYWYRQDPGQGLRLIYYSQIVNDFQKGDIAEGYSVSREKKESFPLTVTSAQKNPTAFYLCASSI
PARAMETER_MEASURED: MFI (MFI)

[[record]]
binder = "28D2E8 (antibody, IgG1, V domains shown) VH: EVQLQESGPGLVKPSQSLSLTCSVTGYFISSGYYWKWIRQFPGNKLEWMGYISYDGSNNYNPSLKNRISITRDTSKNQFFLKLNSVTAEDTATYYCARGGGYVPVWGTGTTVTVSS VL: DIKMTQSPLSLPVSLGDQASISCRSSQSIVRSNGNTYLEWYLQKPGQSPKLLIYKVSNRFSGVPDRFSGSGSGTDFTLKISRVEAEDLGVYYCFQSSHVPRTFGGGTKLEIK"
numeric_result = 50000

[[record]]
binder = "21G11A8 (antibody, V domains shown) VH: EVQLQESGPDLKKPGETVKISCKASGYTFTTYGMNWVKQAPGKGLKWMGYLNTYSGVSTYADDFKGRFAFSLETSANTAYLQINNLRNDDTATYFCARWGNYGAMDYWGQGTSVTVSS VL: DIKMTQSPLSLPVSLGDQASISCRSSQSIVRSNGFTYLEWYLQKPGQSPELLIYKVSNRFSGVPDRFSGSGSGTDFTLKISRVEAEDLGVYYCFQSSHVPRTFGGGTKLEIK"
numeric_result = 38900

[[record]]
binder = "23A9B10 (antibody, V domains shown) VH: EVQLQESGPGLVKPSQSLSLTCSVTGYSITSGYYWNWIRQFLGNKLEWMGYITYDGSNNYNPSLKDRISITRDTSKNQFFLNLNSVTTDDTATYYCARGGGYVPVWGTGTTVTVSS VL: IQMTQSPAFLSVSPGERVSFSCRASQNIGTSIHWYQQRTNGSPRLLIKYASESISGIPSRFSGSGSGTDFTLSINSVESEDFADYYCHQSHNWPTTFGAGTKLELK"
numeric_result = 6600

